tested on: HOP-92 NSCLC; assay: NCI tumour cell line growth inhibition, 48 h; in the data active means GI50 below about 0.43 µM; inactive means the rest
Answer with one of the outcomes yes (1) = active, no (0) = inactive

Some solved cases for reference:
molecule: O=c1c2cccc(Cl)c2sc2c(NCCCNCCO)nc3ccccc3c12
category_label: no (0)
//
molecule: Cc1cc2c(cc1Cl)SC1=CC(=O)N(c3ccccc3)C1=NS2(=O)=O
category_label: no (0)
//
molecule: Oc1ccccc1-c1nn(CNc2cccc(Cl)c2)c(=S)o1
category_label: no (0)
//
molecule: C=C1C(=O)O[C@H]2[C@H]1CC/C(COC(=O)CCCCC(=O)OC/C1=C/CC[C@@]3(C)O[C@H]3[C@H]3OC(=O)C(=C)[C@@H]3CC1)=C\CC[C@@]1(C)O[C@@H]21
category_label: no (0)
//
molecule: Oc1ccc(-c2nnc3sc(-c4ccc(F)c(Oc5ccccc5)c4)nn23)cc1
category_label: no (0)
//
molecule: C/C=C(\C)C(=O)N[C@H]1CC[C@]2(C)C3CC[C@@]4(C)C(CC[C@@H]4C(C)N(C)C)C3CCC2[C@H]1OC(C)=O (stereo not given in full)
category_label: no (0)

Please turn your attention to the following entry.
Recorded test call requested for COc1ccc(N(CC(=O)NCCC[Te]c2ccccc2)C(=O)c2ccccc2)cc1
no (0)

----------
test system: SR leukemia; experiment: NCI tumour cell line growth inhibition, 48 h
metric_name: TGI

Observe how each entry below is paired with its result.
compound: COc1ccc2c(c1)c(-c1ccc(-c3cn(S(=O)(=O)c4ccccc4)c4ccc(OC)cc34)s1)cn2S(=O)(=O)c1ccccc1
measured_result: > 100 µM

compound: O=C1CCCCC1CN1CCCC1 (stereo not drawn)
measured_result: > 100 µM

Okay, next one:
Kindly state the measured TGI obtained for O=S(=O)(/C=C/c1ccc(Cl)cc1Cl)Cc1ccccc1CS(=O)(=O)/C=C/c1ccc(Cl)cc1Cl with SR leukemia.
> 100 µM

----------
test system: A498 renal; assay: NCI tumour cell line growth inhibition, 48 h
metric_name: TGI

Look over these answered cases.
molecule: COC(=O)CCC(=O)CC(=O)C1=NS(=O)(=O)c2nc(S(N)(=O)=O)c(Cl)cc2N1
measured_result: > 100 µM
//
molecule: COC(=O)[C@@H]1CN(C(=O)c2ccccc2)C(=O)N1
measured_result: > 100 µM

Now, please, on to the next molecule.
Recorded TGI for CC1=C[C@H]2c3c(c(O)c(O)c4oc5c(C)cccc5c(=O)c34)[C@H](c3cc(O)c(O)c4oc5c(C)cccc5c(=O)c34)[C@H]2C(C)(C)C1 , please?
5.35 µM

----------
system: ACHN renal; assay: NCI tumour cell line growth inhibition, 48 h
Below, each of the compounds is paired with its reported TGI value.

compound: CN(C)c1ccc(/C=C2/SC(=S)NC2=O)cc1
system: ACHN renal
TGI: > 100 µM

compound: CCOC(=O)c1c(N)nn2c1cc1cccccc12
system: ACHN renal
TGI: > 100 µM

compound: COC(=O)c1ccc(OCc2ccc3nc(OC)c(OC)nc3c2)cc1
system: ACHN renal
TGI: > 100 µM

compound: O=c1/c(=C/c2cccc([N+](=O)[O-])c2)sc2nc3ccccc3n12
system: ACHN renal
TGI: > 100 µM

compound: O=C1/C(=C/c2cccnc2)C(n2cccc2)c2c(Br)sc(Br)c21 (centres undefined)
system: ACHN renal
TGI: 7.69 µM

compound: COc1cc(C2=NN(C)C(c3ccc([N+](=O)[O-])o3)C2)cc(OC)c1OC (centres undefined)
system: ACHN renal
TGI: > 100 µM

Form field: reported TGI of Cn1cc(C2=C(c3cccc4ccccc34)C(=O)NC2=O)c2ccccc21
> 25 µM

Proceed to C#CCOC(=O)c1ccccc1O
> 100 µM

Cool, now CCCN(CCC)C(=O)C1=Cc2ccc(-c3ccc(C(=O)N4CCCC4)cc3)cc2N=C(N)C1
50.9 µM

----------
test system: LOX IMVI melanoma; experiment: NCI tumour cell line growth inhibition, 48 h
metric_name: TGI

compound: Cn1c2ccccc2c(=S)c2ccccc21
measured_result: > 100 µM

Quick one: TGI for COc1cc2nc(-c3cnc(N(C)C)nc3)nc(NC3CCN(Cc4ccccc4)CC3)c2cc1OC ?
3.2 µM

Also, O=C1/C(=C/c2cccnc2)C(n2cccc2)c2c(Br)sc(Br)c21 (stereo unspecified) please.
3.89 µM

Okay, and CCOC(=O)/C(O)=C(/c1n[nH]c(=O)c2ccccc12)[N+](=O)[O-] ?
> 100 µM

Same thing, different compound: CC1=CC(=NC(=O)CBr)C=C/C1=N\S(=O)(=O)c1ccccc1
3.24 µM

Thanks! And C/C(=C\C(C)COCc1ccccc1)[C@H](COCc1ccccc1)OCc1ccccc1 (stereo partly specified) ?
> 100 µM

----------
system: HCT-15 colon; experiment: NCI tumour cell line growth inhibition, 48 h
This section presents molecules with their documented TGI values.

molecule: CCOC(=O)c1cc2c(ccc3cc(C(=O)OCC)[nH]c32)[nH]1
TGI: > 100 µM
--
molecule: COc1ccc(N2C(=O)C3c4[nH]c5ccccc5c4C4CCCCCCCCCCC4C3C2=O)cc1 (configuration not stated)
TGI: 19.9 µM
--
molecule: COC(OC)C1OC(CO)C(n2cc(C)c(=O)[nH]c2=O)C1O (configuration not stated)
TGI: > 100 µM
--
molecule: O=C(O)C(CP(=O)(O)O)=C(Cl)Cl
TGI: > 100 µM
--
molecule: Cn1cc(-c2nc(-c3c[nH]c4ncccc34)cs2)c2cc(F)ccc21
TGI: > 45 µM

Requested read-out TGI, target or system HCT-15 colon, entry CCOc1ccc(N=NC2C(=O)N(C(=O)CC(=O)Nc3ccccc3OC)N=C2C)cc1 (configuration not stated)
> 100 µM

Same lookup for C=CCCC(OCOCCOC)c1cc(C)c(O[Si](C)(C)C(C)(C)C)c(C)c1 (configuration not stated) , please.
31.4 µM

Ok, now O=S1c2ccccc2N=C(c2ccc3ccccc3c2)CC1C1=CC=CCC1 (configuration not stated)
35.7 µM

----------
We begin with a simple list: items and their reported TGI.
tested on: MOLT-4 leukemia; test: NCI tumour cell line growth inhibition, 48 h
// note: answer is a bare numeric in µM

Solved cases (3 shown):
compound: Cn1cncc1[C@@](N)(c1ccc(Cl)cc1)c1ccc2c(c1)c(-c1cccc(Cl)c1)cc(=O)n2C
value_units: µM
TGI: 7.97

compound: CCC(=O)Nc1ccc(N=Cc2cccc(Oc3ccccc3)c2)cc1
value_units: µM
TGI: 76.8

compound: O=S1c2ccccc2N=C(c2ccc3ccccc3c2)CC1C1=CC=CCC1 (centres undefined)
value_units: µM
TGI: 40.5

Attention now turns to another entry.
Fill in: TGI of CCN(CC)CC(=O)Nc1c(C(N)=O)nnn1Cc1cc(Cl)c(C(=O)c2ccc(Cl)cc2)c(Cl)c1 is ___
56

----------
tested on: MALME-3M melanoma; experiment: NCI tumour cell line growth inhibition, 48 h
Readings of TGI for the listed compounds

Past entries and their recorded results:
compound: CC(C)CNC(=O)CCc1cccc2c1oc1c(CCN)cccc12
TGI: 32 µM
//
compound: COC(=O)/C=C/c1ccc2c(c1)CCC2
TGI: > 100 µM

Then there is this compound:
Record CCC[CH2][Sn]1([CH2]CCC)[O]C(=O)c2cc(I)cc(I)c2[O]1 : what is its TGI with MALME-3M melanoma?
2.23 µM

----------
tested on: T-47D breast; experiment: NCI tumour cell line growth inhibition, 48 h
metric_name: TGI

Observe how each entry below is paired with its result.
compound: Cn1ccnc1C(=O)/C=C/c1ccc(C(=O)Nc2ccc(Cl)cc2)cc1
TGI: > 33.3 µM
//
compound: CC(=O)OC1CCN(C(=O)c2ccccc2)CC1CC1(c2cc3ccccc3[nH]2)OCCO1 (centres undefined)
TGI: > 100 µM

Query for T-47D breast: what TGI does the record show for Cc1ccc(/C(O)=C/c2nc3ccccc3oc2=O)cc1 ?
> 100 µM

Then CC(C)(C)OC(=O)N(O)[C@@H]1C=C[C@H](n2cnc3c(N)ncnc32)C1 ?
> 100 µM

----------
system: OVCAR-3 ovarian; assay: NCI tumour cell line growth inhibition, 48 h
Threshold check on TGI: at or above 20 µM gives condition met, strictly below gives condition not met.

molecule: CC(=O)[CH-]C(=O)c1ccccc1.CC(=O)[CH-]C(=O)c1ccccc1.CC[O-].CC[O-].[Zr+4]
category_label: condition met
//
molecule: C=CC(Cl)(CBr)CCC(Br)=C(C)C (stereo not drawn)
category_label: condition met
//
molecule: OC12c3ccccc3C1(N1CCOCC1)CCCCC21OCCCO1 (stereo not drawn)
category_label: condition met
//
molecule: CC(C)(C)NCc1cc(Nc2ccnc3cc(Cl)ccc23)cc(-c2ccc(Cl)cc2)c1O
category_label: condition not met
//
molecule: COc1cc2nc3sc(C(=O)Nc4ccc(C(=O)OC(C)C)cc4)c(C(=O)Nc4ccc(Cl)cc4C)n3c(=O)c2cc1OC
category_label: condition not met

Is the recorded value of TGI equal to or greater than 20 µM for this molecule? CC(=O)OC1CCN(C(=O)c2ccccc2)CC1CC1(c2cc3ccccc3[nH]2)OCCO1 (stereo not drawn)
condition met

Another molecule to look at: C[n+]1c2ccccc2c(CNc2ccc(S(=O)(=O)N=C(N)N)cc2)c2ccccc21
condition met

What do you get for COC(=O)c1ccc(OCc2ccc3nc(OC)c(OC)nc3c2)cc1 ?
condition met

Same read-out for C=CCCCC1CCCNC1=O (stereo not drawn) ?
condition met

Also O=c1cccccc1NCCOCCNc1cccccc1=O ?
condition met

Record: CC(C)(C)NC(C1=CC(C)(C)c2ccccc2C1=O)c1ccccc1 (stereo not drawn)
condition not met

Try the molecule O=C1/C(=C\c2ccc(Cl)cc2Cl)Sc2scc(-c3cccc([N+](=O)[O-])c3)[n+]21
condition met

Next up: CCN(CC)CC(=O)Nc1c(C(N)=O)nnn1Cc1cc(Cl)c(C(=O)c2ccc(Cl)cc2)c(Cl)c1
condition met
